# target-system: Melanin-concentrating hormone receptor 1 (Homo sapiens)
# Sequence (Q99705 whole entry): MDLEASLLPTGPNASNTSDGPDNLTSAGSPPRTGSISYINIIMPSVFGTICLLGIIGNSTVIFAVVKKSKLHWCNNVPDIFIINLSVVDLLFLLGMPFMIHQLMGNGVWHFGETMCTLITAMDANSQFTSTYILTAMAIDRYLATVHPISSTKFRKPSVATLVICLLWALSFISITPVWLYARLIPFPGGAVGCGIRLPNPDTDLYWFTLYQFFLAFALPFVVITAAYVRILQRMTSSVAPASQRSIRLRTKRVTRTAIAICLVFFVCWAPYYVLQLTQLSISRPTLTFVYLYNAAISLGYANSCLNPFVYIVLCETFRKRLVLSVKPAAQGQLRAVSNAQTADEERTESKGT
# protocol-notes: Antagonist activity at human MCHR1 expressed in CHOK1 cells assessed as inhibition of MCH/forskolin-stimulated cAMP production relative to control
# Type: functional, cell-based
# condition-parameters: CHO-K1, concentration not given here
observed-property: inhibition (%)

>  <compound>
Cc1ccc2c(c1)nc(C(C)(C)O)n2[C@H]1CC[C@@H](NC[C@H]2Cc3ccc(C#N)cc3C2)CC1

>  <target-system>
Melanin-concentrating hormone receptor 1 (Homo sapiens)

>  <observed-property>
inhibition

>  <observed>
95

$$$$
>  <compound>
Cc1ccc2c(c1)nc(C)n2[C@H]1CC[C@@H](NCC2Cc3ccc(Cl)cc3C2)CC1 (stereo partly drawn)

>  <target-system>
Melanin-concentrating hormone receptor 1 (Homo sapiens)

>  <observed-property>
inhibition

>  <observed>
98

$$$$
>  <compound>
Cc1ccc2c(c1)nc(C)n2[C@H]1CC[C@@H](NC[C@H]2Cc3ccc(Br)cc3C2)CC1

>  <target-system>
Melanin-concentrating hormone receptor 1 (Homo sapiens)

>  <observed-property>
inhibition

>  <observed>
84

$$$$

Values were extracted from ChEMBL document CHEMBL2401722.
